molecular target: JAK3 (Homo sapiens, UniProt P52333); construct: made in house; host or cells: SF9 insect cells (baculovirus); test: JAK3 inhibition (Table 4); type: biochemical; settings: read-out: JAK3 Ki
Sequence (P52333 783-1124): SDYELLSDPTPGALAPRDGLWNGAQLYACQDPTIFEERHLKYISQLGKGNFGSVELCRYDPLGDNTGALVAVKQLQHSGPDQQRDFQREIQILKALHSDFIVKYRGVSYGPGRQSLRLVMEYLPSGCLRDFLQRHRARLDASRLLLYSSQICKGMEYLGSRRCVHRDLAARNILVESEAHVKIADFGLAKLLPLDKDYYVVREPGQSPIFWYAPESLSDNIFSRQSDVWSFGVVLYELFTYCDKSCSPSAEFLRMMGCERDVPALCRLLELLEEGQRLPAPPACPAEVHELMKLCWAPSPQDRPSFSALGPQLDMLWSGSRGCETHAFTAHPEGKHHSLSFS
Counter-ions that a name gives are not always drawn.
Measured Parameter: pKi
Field pKi (float): negative decimal logarithm of the concentration in molar.

Below, 3 compounds whose answers are already recorded.
{"columns": ["Compound", "Test Target", "Measured Parameter", "Recorded Number"],
 "data": [
  ["OC(CN1CCC(n2cnc3cnc4[nH]ccc4c32)CC1)(C(F)(F)F)C(F)(F)F", "JAK3 (Homo sapiens, UniProt P52333)", "pKi", 7.06],
  ["c1ccc(CCN2CCC[C@@H](n3cnc4cnc5[nH]ccc5c43)C2)cc1", "JAK3 (Homo sapiens, UniProt P52333)", "pKi", 6.88],
  ["OCc1nc2cnc3[nH]ccc3c2n1C1CC2CCC1O2 (single isomer, unassigned) [Example 851]", "JAK3 (Homo sapiens, UniProt P52333)", "pKi", 7.61]
]}

Can you look up the measured pKi of `CC1(n2cnc3cnc4[nH]ccc4c32)CCN(CCC#N)CC1` for me?
6.57

What do you get for `C[C@]1(O)CC[C@@H](n2nnc3cnc4[nH]ccc4c32)CC1` ?
6.98

What do you get for C[C@@H](O)c1nc2cnc3[nH]ccc3c2n1C1CCC(C#N)CC1 (stereo partly shown) ?
8.73

What do you get for `Cc1nc2cnc3[nH]ccc3c2n1C1CCN(C(=O)NCC(F)(F)F)CC1` ?
6.22

What do you get for `CCN1CC[C@@H](n2nnc3cnc4[nH]ccc4c32)[C@@H](F)C1` ?
6.74

What do you get for `CCS(=O)(=O)NCc1nc2cnc3[nH]ccc3c2n1C1CCN(CCC#N)CC1` ?
7.27

What do you get for O=C1CC2CCC(n3cnc4cnc5[nH]ccc5c43)CC2N1 (racemic) ?
7.58

What do you get for `CC(C)(C)OC(=O)N1CC(c2nc3cnc4[nH]ccc4c3n2C2CCN(Cc3ccccc3)CC2)C1` ?
7.69

What do you get for `CS(=O)(=O)NCc1nc2cnc3[nH]ccc3c2n1[C@@H]1CCCOC1` ?
5.95

What do you get for `C[C@@H](O)c1nc2cnc3[nH]ccc3c2n1[C@H]1CC[C@H](N(C)CCC#N)CC1` ?
7.07

What do you get for `N#CCCN[C@H]1CC[C@@H](n2cnc3cnc4[nH]ccc4c32)CC1` ?
7.08

What do you get for `CC(C)(C)C(=O)NCCc1nc2cnc3[nH]ccc3c2n1C1CCN(CCC#N)CC1` ?
7.00

What do you get for COCCNC1CCC(n2nnc3cnc4[nH]ccc4c32)C1 (racemic) [Example 618, hydrochloride] ?
6.03

What do you get for `O=C([C@@H]1CCCN1)N1CCC(n2cnc3cnc4[nH]ccc4c32)CC1` ?
5.93

What do you get for COCCN(C)C(=O)NC1CCC(n2cnc3cnc4[nH]ccc4c32)C1 (racemic) ?
6.52

What do you get for `CC1(n2cnc3cnc4[nH]ccc4c32)CCN(Cc2cccc(C#N)c2)CC1` ?
6.02

What do you get for `N#Cc1ccc(N2CCC(n3cnc4cnc5[nH]ccc5c43)CC2)nc1` ?
6.79

What do you get for `C[C@@H](O)c1nc2cnc3[nH]ccc3c2n1N1CCCCC1` ?
7.14

What do you get for CN1CCCCCC1C(=O)N1CCC(n2cnc3cnc4[nH]ccc4c32)CC1 (racemic) ?
5.46

What do you get for C[C@@H](O)c1nc2cnc3[nH]ccc3c2n1C1CCNCC1F (stereo partly shown) ?
7.98

What do you get for Cc1nc2cnc3[nH]ccc3c2n1C1CCc2nc[nH]c2C1 (racemic) ?
7.04
